molecular target: NEIL1 (Homo sapiens, UniProt Q96FI4); construct: made in house; test: qHTS fluorogenic glycosylase/AP lyase assay, 1536-well, Sp/Gh substrate; format: biochemical; conditions: 5 concentrations
Sequence (Q96FI4 whole entry): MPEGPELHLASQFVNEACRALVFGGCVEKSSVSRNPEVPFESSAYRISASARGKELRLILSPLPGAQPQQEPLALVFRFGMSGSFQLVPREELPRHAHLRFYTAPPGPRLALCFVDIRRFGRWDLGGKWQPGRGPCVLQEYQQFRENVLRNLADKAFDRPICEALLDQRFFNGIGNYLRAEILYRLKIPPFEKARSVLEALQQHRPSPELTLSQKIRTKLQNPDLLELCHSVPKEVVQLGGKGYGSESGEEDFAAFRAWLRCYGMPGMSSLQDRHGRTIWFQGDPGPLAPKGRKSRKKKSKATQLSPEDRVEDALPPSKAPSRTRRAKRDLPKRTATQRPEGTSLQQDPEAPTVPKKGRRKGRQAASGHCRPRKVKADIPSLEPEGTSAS
pIC50: −log10 of the molar value.

{"MOLECULE": "O=C(C1CCCN(c2ncnc3c2nc2n3CCCCC2)C1)N1CCN(c2cccc(Cl)c2)CC1 (stereo not shown)", "pIC50": 4.80}
{"MOLECULE": "Cc1cc(/C=C/C#N)cc(C)c1Nc1nc(Nc2ccc3c(c2)OCO3)c2nc[nH]c2n1", "pIC50": 5.00}
{"MOLECULE": "CCOCCCNc1ncnc2c1nc1n2CCCC1", "pIC50": 6.10}
{"MOLECULE": "COc1ccc(CNc2nc(NCc3ccc(OC)cc3)c3[nH]cnc3n2)cc1", "pIC50": 6.22}
